Target: Human immunodeficiency virus type 1 protease (Human immunodeficiency virus 1)
Experiment: Tested for inhibitory activity against the recombinant HIV-1 protease
Ki strictly under 0.7 µM means condition met; at 0.7 µM or over means condition not met.

molecule	class.assignment
C[Si](C)(C)CNC(=O)C(F)(F)C(=O)C(Cc1ccccc1)NC(=O)OCc1ccccc1 (configuration not stated)	condition met
O=C(Cc1ccccc1)NCC(F)(F)C(=O)C(Cc1ccccc1)NC(=O)OCc1ccccc1 (configuration not stated)	condition not met
CC(C)(C)CNC(=O)C(F)(F)C(=O)C(Cc1ccccc1)NC(=O)OCc1ccccc1 (configuration not stated)	condition met
CCC[C@H](NC(=O)OCc1ccccc1)C(=O)NC(Cc1ccccc1)C(=O)C(F)(F)C(=O)NCc1ccccc1 (some centres not stated)	condition not met
C[Si](C)(C)CC(NC(=O)OCc1ccccc1)C(=O)C(F)(F)C(=O)NCc1ccccc1 (configuration not stated)	condition not met
CC(C)C(NC(=O)OCc1ccccc1)C(=O)NC(Cc1ccccc1)C(=O)C(F)(F)C(=O)NCc1ccccc1 (configuration not stated)	condition met
CON[C@H](C(=O)N[C@H](C(=O)NC(=O)C(F)(F)C(=O)[C@H](Cc1ccccc1)NC(=O)[C@H](C)NC(=O)[C@H](C)NC(=O)[C@H](CO)NC(=O)OC(C)(C)C)C(C)C)C(C)C	condition not met
CC(C)(C)OC(=O)NC(Cc1ccc(O)cc1)C(=O)C(F)(F)C(=O)NCc1ccccc1 (configuration not stated)	condition met
O=C(NC(Cc1ccccc1)C(=O)C(F)(F)C(=O)NCc1ccccc1)OCc1ccccc1 (configuration not stated)	condition met
O=C(NC(Cc1cccc2ccccc12)C(=O)C(F)(F)C(=O)NCc1ccccc1)OCc1ccccc1 (configuration not stated)	condition not met
CC(C)(C)OC(=O)NC(C[Si](C)(C)C)C(=O)C(F)(F)C(=O)NCc1ccccc1 (configuration not stated)	condition not met
CN(Cc1ccccc1)C(=O)C(=O)C(=O)C(Cc1ccccc1)NC(=O)OCc1ccccc1 (configuration not stated)	condition not met

* * *

Target: Human immunodeficiency virus type 1 protease (Human immunodeficiency virus 1, UniProt Q72874)
Test: Tested for inhibitory activity against the recombinant HIV-1 protease

molecule	IC50
CC(C)(C)OC(=O)NC(Cc1ccccc1)C(=O)C(F)(F)C(=O)NCc1ccccc1 (stereo unspecified)	0.004 µM
CC(C)C(NC(=O)OCc1ccccc1)C(=O)NC(Cc1ccccc1)C(O)C(F)(F)C(=O)NCc1ccccc1 (stereo unspecified)	5000 µM
CC(C)CC(NC(=O)OCc1ccccc1)C(=O)NC(Cc1ccccc1)C(=O)C(F)(F)C(=O)NCc1ccccc1 (stereo unspecified)	750 µM
CC(C)C(NC(=O)OCc1ccccc1)C(=O)NC(Cc1ccccc1)C(=O)C(F)(F)C(=O)CCc1ccccc1 (stereo unspecified)	0.1 µM
CC(C)(C)[C@H](NC(=O)OCc1ccccc1)C(=O)NC(Cc1ccccc1)C(=O)C(F)(F)C(=O)NCc1ccccc1 (stereo partly specified)	0.027 µM
NC(=O)C(F)(F)C(=O)C(Cc1ccccc1)NC(=O)OCc1ccccc1 (stereo unspecified)	300 µM
